# System: Salmonella typhimurium
# ASSAY_METHOD_TEXT: Antibacterial activity against Salmonella Typhimurium after 18 hrs by macro-dilution test
# Format: functional, Salmonella enterica subsp. enterica serovar Typhimurium
# STATED_CONDITIONS: Salmonella enterica
Give measured MIC for each item. Keep answers brief.
Give bare numbers, in µg/mL.

Quick one: give me MIC for each item below, same order please.
1. CC(=O)N(C1=NN(C(C)=O)C(c2cc3ccccc3nc2Cl)S1)c1ccccc1C (stereo not given)
2. CC(=O)NC1=NN(C(C)=O)C(c2cc3cccc(C)c3nc2Cl)S1 (stereo not given)
3. Cc1cccc2cc(/C=N/NC(=S)NC3CCCCC3)c(Cl)nc12
4. CC(=O)N1N=C(N(C(C)=O)C2CCCCCCC2)SC1c1cc2cccc(Cl)c2nc1Cl (stereo not given)
5. CC(=O)N(C1=NN(C(C)=O)C(c2cc3cccc(Cl)c3nc2Cl)S1)c1cc(F)ccc1F (stereo not given)
6. CC(=O)N1N=C(N(C(C)=O)C2CCCCC2)SC1c1cc2cccc(C)c2nc1Cl (stereo not given)

Key:
32
256
256
64
64
256
